tested on: OVCAR-3 ovarian; experiment: NCI tumour cell line growth inhibition, 48 h
Overview of reported TGI across a group of compounds:
Reply with just the number (in µM).

In the examples that follow, each entry is paired with its recorded TGI.
>  <compound>
N#Cc1c(Cl)c2cccnc2n2c1nc1ccccc12

>  <assaySystem>
OVCAR-3 ovarian

>  <metricName>
TGI

>  <number>
9.6

$$$$
>  <compound>
c1cc2c3c(c1)c1cc4c(cc1c[n+]3CC2)OCO4

>  <assaySystem>
OVCAR-3 ovarian

>  <metricName>
TGI

>  <number>
16.2

$$$$
>  <compound>
CCN1[C@@H](C(=O)NC23CCC(C(=O)O)(CC2)CC3)[C@H](c2cccc(Cl)c2F)[C@]2(C(=O)Nc3cc(Cl)ccc32)C12CCCCC2

>  <assaySystem>
OVCAR-3 ovarian

>  <metricName>
TGI

>  <number>
7.74

$$$$
>  <compound>
COc1cc(C2=NN(C(C)=O)C(c3cc(OC)c(OC)c(OC)c3)C2)ccc1O (stereo not given)

>  <assaySystem>
OVCAR-3 ovarian

>  <metricName>
TGI

>  <number>
5.21

$$$$
>  <compound>
CCCCCCCCC/C=C1/CC(CO)(COC(=O)CC(C(C)C)C(C)C)OC1=O (stereo not given)

>  <assaySystem>
OVCAR-3 ovarian

>  <metricName>
TGI

>  <number>
27.6

$$$$

Record lookup: for OVCAR-3 ovarian, what TGI belongs to COc1ccc(/C=C2\CCC(CCN(C)C)(C3=CCCC3)C2=O)cc1 (stereo not given) ?
49.7

Next record, please: CSc1ncnc2c1ncn2CC(=O)C1CCC2C3CCC4=CC(=O)CCC4(C)C3CCC12C (stereo not given)
25.8

Try the compound CC1=Nc2ccccc2SC(c2c(Cl)cccc2Cl)C1 (stereo not given)
0.885

---

system: NCI-H460 lung
// reported GI50 for each item listed

>  <compound>
O=C(Nc1cccc2[nH]c(C(F)(F)F)nc12)c1cc(Cl)ccc1Cl

>  <result>
3090 nM

$$$$
>  <compound>
CC(=O)c1ccc2c(c1)N(CCCN1CCN(CCO)CC1)c1ccccc1S2

>  <result>
2050 nM

$$$$
>  <compound>
CC(C)(C)NCC(O)COc1c(Br)c(Br)c(Br)c2c1OC(C)(C)C2 (stereo not given)

>  <result>
1770 nM

$$$$
>  <compound>
CCOc1cc(/C=C/C(=O)C(C(=O)/C=C/c2ccc(OC(=O)CNc3nc4ccccc4[nH]3)c(OCC)c2)C(=O)CNc2nc3ccccc3[nH]2)ccc1OC(=O)CNc1nc2ccccc2[nH]1

>  <result>
1920 nM

$$$$

Note: attention shifts to another entry.
Fill in: GI50 of `Cn1c(=O)n(C)c2cc(CNCCNc3ccnc4cc(Cl)ccc34)ccc21` is ___
20900 nM

---

tested on: OVCAR-4 ovarian; experiment: NCI tumour cell line growth inhibition, 48 h
metricName: log10 TGI (log10 of the value in µM)
Note: values are log10 of TGI expressed in µM.

Worked cases, log10 TGI given:
>  <compound>
CCCC1(CN2c3ccccc3Sc3ccc(Cl)cc32)CCN(CC)C1 (stereo not given)

>  <log10 TGI>
0.53

$$$$
>  <compound>
CCCCCCCCC/C=C1/CC(CO)(COC(=O)CC(C(C)C)C(C)C)OC1=O (stereo not given)

>  <log10 TGI>
1.45

$$$$
>  <compound>
COc1ccc(C2=[S+]C(c3ccccc3)(c3ccccc3)c3ccccc32)cc1

>  <log10 TGI>
1.79

$$$$
>  <compound>
CC(NC(=O)Cc1ccc(C(F)(F)P(=O)(OCc2ccc([N+](=O)[O-])o2)N(C)CCCCCl)cc1)c1ccc(OCC2CCCCC2)c(C(N)=O)c1 (stereo not given)

>  <log10 TGI>
1.08

$$$$
>  <compound>
CCCN(CCC)c1ccc(C=O)c(Cl)c1

>  <log10 TGI>
1.15

$$$$

Here is another compound to look at.
What measured log10 TGI goes with CCC(C)C(N)C(=O)N/N=C\c1c2c(nc3ccccc13)-c1cc3c(c(=O)n1C2)COC(=O)[C@]3(O)CC (stereo not given in full) ?
1.72

---

test system: SK-MEL-28 melanoma; experiment: NCI tumour cell line growth inhibition, 48 h
Parameter: TGI. Scope: all listed entries.

# example entries with known answers
>  <molecule>
Cn1c(=Nc2ccc(Cl)cc2)sc2ccccc21

>  <TGI>
> 100 µM

$$$$
>  <molecule>
CCn1cc(/C=C2\Oc3cc(OCC#N)ccc3C2=O)c2cc(OC)ccc21

>  <TGI>
> 100 µM

$$$$
>  <molecule>
Cc1ccc(O)c(C2=CC3=NNC(=O)C3C(c3cccc(Cl)c3)C2)c1 (stereo unspecified)

>  <TGI>
> 100 µM

$$$$
>  <molecule>
CC(=O)c1ccc2c(c1)N(CCCN1CCN(CCO)CC1)c1ccccc1S2

>  <TGI>
3.23 µM

$$$$

Would you mind telling me what TGI value was observed for `c1cc2c3c(c1)c1cc4c(cc1c[n+]3CC2)OCO4` ?
12.3 µM

Cool, now CCOc1ccc(N=C2NC(=O)C(CC(=O)Nc3ccccc3[N+](=O)[O-])S2)cc1 (stereo unspecified)
> 100 µM

Next entry: `COc1ccc(C2=[S+]C(c3ccccc3)(c3ccccc3)c3ccccc32)cc1`
58.5 µM

Another molecule: `N#[N+]c1c([O-])c2ccccc2c2ccccc12`
> 100 µM

---

system: KM12 colon; assay: NCI tumour cell line growth inhibition, 48 h
metricName: TGI

>  <compound>
CC1(C)CC(=O)c2c(nc3c(ccc4ccccc43)c2-c2ccc(NC(=O)CCC(=O)Nc3ccc(-c4c5c(nc6c4ccc4ccccc46)CC(C)(C)CC5=O)cc3)cc2)C1

>  <assaySystem>
KM12 colon

>  <result>
> 100 µM

$$$$
>  <compound>
N#[N+]c1c([O-])c2ccccc2c2ccccc12

>  <assaySystem>
KM12 colon

>  <result>
> 100 µM

$$$$
>  <compound>
COc1cc(OCc2cccc(-c3ccccc3)c2C)cc(OC)c1CN1CCCCC1C(=O)NCCOCCOCCN (centres undefined)

>  <assaySystem>
KM12 colon

>  <result>
11.4 µM

$$$$
>  <compound>
CC1(C)COC2C(N(Cc3ccccc3)Cc3ccccc3)C(=O)N21 (centres undefined)

>  <assaySystem>
KM12 colon

>  <result>
> 100 µM

$$$$

Short answer please: TGI, KM12 colon, entry `COC(=O)c1cc(=O)nc2cc3cccccc3n12`
> 100 µM

What do you have for CC1(C)OC(=S)N(c2ccccc2)C12C=Cc1cc3ccccc3nc1S2 (centres undefined) ?
> 100 µM

Moving on to the next compound: `C=C1C(=O)O[C@H]2[C@H]1CC/C(COC(=O)N[C@H]1C[C@H](O[C@H]3C[C@](O)(C(=O)CO)Cc4c(O)c5c(c(O)c43)C(=O)c3c(OC)cccc3C5=O)O[C@@H](C)[C@H]1O)=C\CC[C@@]1(C)O[C@@H]21`
40.7 µM

And the next one, `O=C1/C(=C\c2ccc(Br)cc2)CCCc2ccccc21` ?
29 µM

Now try CC(C)=NOC(=O)CNC(=O)C(Cc1ccccc1)NC(=O)C(C)NC(=O)OC(C)(C)C (centres undefined) .
> 100 µM

---

tested on: LOX IMVI melanoma; assay: NCI tumour cell line growth inhibition, 48 h
metricName: log10 of TGI (log10 of the value in µM)
Scale: decimal log of TGI, TGI in µM.

>  <molecule>
N#Cc1c2ccc([N+](=O)[O-])cc2c(=O)n2c1[nH]c1ccc(C(F)(F)F)cc12

>  <log10 of TGI>
1.66

$$$$
>  <molecule>
CC12CCCCC1=C(F)C(F)(F)S2 (stereo not given)

>  <log10 of TGI>
1.92

$$$$
>  <molecule>
C=C1C(=O)O[C@H]2[C@H]1CC/C(COC(=O)NCc1ccc(Cn3c(=O)sn(CCCCC)c3=O)cc1)=C\CC[C@@]1(C)O[C@@H]21

>  <log10 of TGI>
0.47

$$$$
>  <molecule>
Cc1cc(N/N=C/c2nc(-c3ccc(Cl)cc3)oc2C)c2cc(Br)ccc2n1

>  <log10 of TGI>
0.57

$$$$
>  <molecule>
COc1ccc(C2=[S+]C(c3ccccc3)(c3ccccc3)c3ccccc32)cc1

>  <log10 of TGI>
1.50

$$$$
>  <molecule>
C[N+](C)(C)CC1CCCCC1=O (stereo not given)

>  <log10 of TGI>
1.44

$$$$

Given `C=C1C(=O)O[C@H]2[C@H]1CC/C(Cn1cc(-c3ccc(N)cc3)nn1)=C\CC[C@@]1(C)O[C@@H]21` , state its recorded log10 of TGI.
0.46

// repeat for `N=c1ccc2nc3ccc(N)cc3sc-2c1` and report
1.10

---

system: UO-31 renal; assay: NCI tumour cell line growth inhibition, 48 h
metricName: TGI (µM)
Give just the numeric value; µM need not be written.

>  <molecule>
COc1cc(OCc2cccc(-c3ccccc3)c2C)cc(OC)c1CN1CCCCC1C(=O)NCCOCCOCCN (configuration not stated)

>  <assaySystem>
UO-31 renal

>  <TGI (µM)>
22.9

$$$$

Param readout = TGI; param system = UO-31 renal; param query = `Cc1cc(NCc2cc(Nc3ccnc4cc(Cl)ccc34)ccc2F)nc(N2CCOCC2)n1` ; response: value
2.71

Now try `O=C(N=Nc1ccc(Cl)cc1Cl)NNc1ccc(Cl)cc1Cl` .
37.5

Each recorded value in this set is attributed to PubChem BioAssay (NCI).
